Molecular target: Carbonic anhydrase 2 (Homo sapiens) (UniProt P00918)
Assay: CAII small-molecule binders, profiling panel, biochemical, small-molecule microarray, Alexa647-labelled CAII (AID 1122)
Conditions: CAII-A647 binding fluorescence, higher = more signal
The threshold is inclusive: composite z-score of exactly 0.02 counts as YES; values below receive NO.

molecule=CC(C)CON=C1C[C@@H](O)[C@@H](O)[C@@H]2[C@@H]3C(=O)N(C(C)(C)C)C(=O)[C@@H]3CC[C@@H]12 measurement_target="Carbonic anhydrase 2 (Homo sapiens) (UniProt P00918)" group_label=NO
molecule="COC(=O)[C@H](C)NC(=O)CCC1CC(OC(=O)NCCc2ccc(F)cc2)CC2(CCCC(COC(=O)NCC3CCCCC3)O2)O1 (stereo not given in full)" measurement_target="Carbonic anhydrase 2 (Homo sapiens) (UniProt P00918)" group_label=YES
molecule=COC(=O)CC=C[C@@H](C)[C@@H](C=NOC[C@@H](C)[C@H](OCc1ccccc1)C(C)C)OC measurement_target="Carbonic anhydrase 2 (Homo sapiens) (UniProt P00918)" group_label=NO
molecule=COC(=O)[C@@H]1CC[C@H](C)[C@@H](c2ccc(C)cc2)N1C(=O)c1ccc(C=NO[C@@H](C)c2cc(-c3c(C)cc(C)cc3C)no2)cc1 measurement_target="Carbonic anhydrase 2 (Homo sapiens) (UniProt P00918)" group_label=YES
molecule="CC(=O)OC[C@H]1O[C@H](CC=NOC(C)CN2CCCCc3nc(C)c(C)cc32)C=C[C@@H]1OC(C)=O (stereo not given in full)" measurement_target="Carbonic anhydrase 2 (Homo sapiens) (UniProt P00918)" group_label=YES

---

Catalogue of composite z-score values
Target: Torsin-1A (Homo sapiens) (UniProt O14656)
Sequence (O14656 whole entry, looked up): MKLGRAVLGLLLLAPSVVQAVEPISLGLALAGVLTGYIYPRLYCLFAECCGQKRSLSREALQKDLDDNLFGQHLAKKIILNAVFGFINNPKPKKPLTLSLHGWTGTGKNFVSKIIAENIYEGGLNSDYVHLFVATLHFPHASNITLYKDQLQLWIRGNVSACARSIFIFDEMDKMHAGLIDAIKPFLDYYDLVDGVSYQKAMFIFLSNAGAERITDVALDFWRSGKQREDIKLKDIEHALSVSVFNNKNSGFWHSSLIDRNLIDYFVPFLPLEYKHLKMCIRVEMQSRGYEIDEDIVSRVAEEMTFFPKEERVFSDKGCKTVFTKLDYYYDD
Assay: small-molecule binders of mutant TOR1A in lysate, primary screen, cell lysate, small-molecule microarray, COS7 lysate, 635/667 nm fluorescence (AID 1150);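 further: score pools 667 nm emission and signal to noise measuring lysate protein binding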
Details: COS7 hTOR1A mutant lysate, 635 nm fluorescence, higher = more signal
reported-endpoint: composite z-score

molecule=CC(=O)OC[C@H]1O[C@H](CC=NO[C@H](C)c2cn([C@@H]3COC[C@H]3O)nn2)C=C[C@@H]1OC(C)=O reported_result=-0.108
molecule="C=CC[C@@H]1C=CC(ON=C(C)C)[C@@H](CO)O1 (some centres undefined)" reported_result=-0.611
molecule="COc1ccc(OC[C@@H]2CC3[C@@H](c4ccc(Br)cc4)[C@H](C)CC[C@H]3C(=O)O2)cc1 (some centres undefined)" reported_result=0.832
molecule=CCOC(=O)CCN1C(=O)[C@H]2[C@H]3[C@H](O)[C@H](O)CC(=NOCC(C)C)[C@@H]3CC[C@H]2C1=O reported_result=2.77

---

Assay: MM1S cell viability effects, profiling panel, calcein-AM fluorescence, 48 h, basal (AID 1165);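 further: viability of MM1S multiple myeloma cells under basal unstimulated conditions; test concentration not given here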
Details: higher = more signal
Class (by z-score) -- bin A: < -1; bin B: ≥ -1 and < 0.02; bin C: ≥ 0.02

compound=C[C@@H]1CC[C@H]2C(=O)N3[C@@H](CC[C@@H](C)[C@@H]3c3ccc(Br)cc3)C(=O)N2[C@H]1c1ccc(Br)cc1 group_label="bin A"
compound="COC(=O)[C@H](C)NC(=O)CCC1CC(OC(=O)NCc2ccc3c(c2)OCO3)CC2(CCCC(COC(=O)NCCCN3CCCC3=O)O2)O1 (some centres undefined)" group_label="bin B"
compound="CC(CCC(=O)OC[C@H]1O[C@H](C#Cc2ccccc2)C=C[C@@H]1Oc1ccc(C)cc1)=NOC(C)CN1CCCc2nc(C)c(C)cc21 (some centres undefined)" group_label="bin A"
compound=C=CC[C@@H]1C=C[C@H](ON=CC[C@@H]2C=C[C@H](OC(C)=O)[C@@H](COC(C)=O)O2)[C@@H](CO)O1 group_label="bin C"
compound=Cc1cc(C)c(-c2cc([C@H](C)ON=C[C@@H](C)[C@H](OCc3ccccc3)C(C)C)on2)c(C)c1 group_label="bin C"
compound=CO[C@@H]1[C@H](O)CO[C@H]1C=Cc1ccccc1 group_label="bin B"
compound=COC(=O)[C@@H]1CC[C@H](C)[C@@H](c2ccc(Br)cc2)N1C(=O)C(F)(F)F group_label="bin A"
compound=O=C1[C@H]2CCn3c(=O)n(-c4ccccc4)c(=O)n3[C@H]2[C@H](O)[C@@H]2O[C@H]12 group_label="bin A"
